Each record here notes measured RLU.
# experimental.target: human TAS2R1 (Homo sapiens, UniProt Q9NYW7)
# Construct: expressed in transfected cells; host or cells: HEK293T-Gα16gust44
# Sequence (Q9NYW7 1-299): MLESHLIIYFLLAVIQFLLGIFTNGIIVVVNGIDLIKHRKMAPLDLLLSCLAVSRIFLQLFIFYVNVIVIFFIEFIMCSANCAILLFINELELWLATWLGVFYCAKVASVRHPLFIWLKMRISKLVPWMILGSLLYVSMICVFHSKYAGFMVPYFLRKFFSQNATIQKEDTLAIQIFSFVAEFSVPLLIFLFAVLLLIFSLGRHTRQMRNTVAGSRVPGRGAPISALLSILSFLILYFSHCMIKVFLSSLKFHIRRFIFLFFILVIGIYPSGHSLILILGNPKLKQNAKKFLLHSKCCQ
# method.notes: Calcium imaging assay (FLIPR), HEK293T-Gα16gust44 cells transfected with human TAS2R1
# Assay type: cell-based
# condition.details: Time 52.796 s
Give the quantity in RLU, number only.

Observe how each entry below is paired with its result.
# smiles.data, experimental.target, readout.label, readout.units, numeric.value
rows = [
    ("C[C@H](CCC(=O)O)[C@H]1CC[C@H]2[C@@H]3CC[C@@H]4C[C@H](O)CC[C@]4(C)[C@H]3CC[C@]12C", "human TAS2R1 (Homo sapiens, UniProt Q9NYW7)", "RLU", "RLU", 734.503),
    ("C[C@H](CCC(=O)O)[C@H]1CC[C@H]2[C@@H]3[C@H](O)C[C@@H]4C[C@H](O)CC[C@]4(C)[C@H]3C[C@H](O)[C@]12C", "human TAS2R1 (Homo sapiens, UniProt Q9NYW7)", "RLU", "RLU", 721.254),
    ("C[C@H](CCC(=O)O)[C@H]1CC[C@H]2[C@@H]3[C@H](O)C[C@@H]4C[C@H](O)CC[C@]4(C)[C@H]3CC[C@]12C", "human TAS2R1 (Homo sapiens, UniProt Q9NYW7)", "RLU", "RLU", 893.665),
]

Shift focus to the following entry.
QUERY: Identify the measured RLU of C[C@H](CCC(=O)O)[C@H]1CC[C@H]2[C@@H]3[C@@H](O)C[C@@H]4C[C@H](O)CC[C@]4(C)[C@H]3CC[C@]12C for human TAS2R1 (Homo sapiens, UniProt Q9NYW7).
RESULT: 706.484

###

# experimental.target: human TAS2R1 (Homo sapiens)
# Construct: expressed in transfected cells; host or cells: HEK293T-Gα16gust44
# method.notes: Calcium imaging assay (FLIPR), HEK293T-Gα16gust44 cells transfected with human TAS2R1
# Type: cell-based
# condition.details: Time 132.796 s
Each record here notes measured RLU.
Give the quantity in RLU, number only.

Observe how each entry below is paired with its result.
# molecule, experimental.target, RLU, RLU
records = [
    ("C[C@H](CCC(=O)O)[C@H]1CC[C@H]2[C@@H]3[C@@H](O)C[C@@H]4C[C@H](O)CC[C@]4(C)[C@H]3CC[C@]12C [Ursodeoxycholic Acid, ursodeoxycholic acid]", "human TAS2R1 (Homo sapiens)", 247.428),
    ("C[C@H](CCC(=O)O)[C@H]1CC[C@H]2[C@@H]3CC[C@@H]4C[C@H](O)CC[C@]4(C)[C@H]3CC[C@]12C [Lithocholic Acid, lithocholic acid]", "human TAS2R1 (Homo sapiens)", 786.781),
    ("C[C@H](CCC(=O)O)[C@H]1CC[C@H]2[C@@H]3[C@H](O)C[C@@H]4C[C@H](O)CC[C@]4(C)[C@H]3CC[C@]12C [Chenodeoxycholic Acid, chenodeoxycholic acid]", "human TAS2R1 (Homo sapiens)", 570.089),
]

Shift focus to the following entry.
QUERY: Can you share its RLU? I mean this molecule: C[C@H](CCC(=O)O)[C@H]1CC[C@H]2[C@@H]3[C@H](O)C[C@@H]4C[C@H](O)CC[C@]4(C)[C@H]3C[C@H](O)[C@]12C [Cholic Acid, cholic acid]
RESULT: 399.927

###

# experimental.target: human TAS2R14 (Homo sapiens, UniProt Q9NYV8)
# Construct: expressed in transfected cells; host or cells: HEK293T-Gα16gust44
# method.notes: Calcium imaging assay (FLIPR), HEK293T-Gα16gust44 cells transfected with human TAS2R14
# Type: cell-based
# condition.details: TAS2R14 trace; Time (s) 16 (Taurocholic Acid 16.016)
Each record here notes measured RLU.
Give the quantity in RLU, number only.

# smiles.data, experimental.target, RLU / RLU
measured = [
    ("C[C@H](CCC(=O)NCCS(=O)(=O)O)[C@H]1CC[C@H]2[C@@H]3CC[C@@H]4C[C@H](O)CC[C@]4(C)[C@H]3CC[C@]12C", "human TAS2R14 (Homo sapiens, UniProt Q9NYV8)", -67.1139),
]

QUERY: Identify the measured RLU of C[C@H](CCC(=O)O)[C@H]1CC[C@H]2[C@@H]3[C@H](O)C[C@@H]4C[C@H](O)CC[C@]4(C)[C@H]3CC[C@]12C for human TAS2R14 (Homo sapiens, UniProt Q9NYV8).
RESULT: -43.9695

QUERY: Param item: C[C@H](CCC(=O)NCC(=O)O)[C@H]1CC[C@H]2[C@@H]3[C@H](O)C[C@@H]4C[C@H](O)CC[C@]4(C)[C@H]3C[C@H](O)[C@]12C
RESULT: -51.9041

QUERY: Param item: C[C@H](CCC(=O)O)[C@H]1CC[C@H]2[C@@H]3[C@H](O)C[C@@H]4C[C@H](O)CC[C@]4(C)[C@H]3C[C@H](O)[C@]12C
RESULT: -31.0627

QUERY: Param item: C[C@H](CCC(=O)NCCS(=O)(=O)O)[C@H]1CC[C@H]2[C@@H]3[C@H](O)C[C@@H]4C[C@H](O)CC[C@]4(C)[C@H]3C[C@H](O)[C@]12C
RESULT: -65.1913

###

# experimental.target: human TAS2R4 (Homo sapiens)
# Construct: expressed in transfected cells; host or cells: HEK293T-Gα16gust44
# Sequence (Q9NYW5 whole entry): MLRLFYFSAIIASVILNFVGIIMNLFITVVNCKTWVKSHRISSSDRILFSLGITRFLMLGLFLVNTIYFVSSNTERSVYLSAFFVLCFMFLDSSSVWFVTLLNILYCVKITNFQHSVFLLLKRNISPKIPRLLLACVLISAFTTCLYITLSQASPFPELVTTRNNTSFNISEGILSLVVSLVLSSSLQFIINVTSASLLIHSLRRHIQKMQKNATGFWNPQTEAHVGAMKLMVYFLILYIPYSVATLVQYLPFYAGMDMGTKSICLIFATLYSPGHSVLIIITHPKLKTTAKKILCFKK
# method.notes: Calcium imaging assay (FLIPR), HEK293T-Gα16gust44 cells transfected with human TAS2R4; also: test concentration or dose not given here
# Type: cell-based
# condition.details: Time (s) 118.781 (TCA, TLCA: 118.782)
readout.label: RLU, fluorescence trace (RLU)
Give the quantity in RLU, number only.

# smiles.data, readout.label, numeric.value
records = [
    ("C[C@H](CCC(=O)O)[C@H]1CC[C@H]2[C@@H]3[C@H](O)C[C@@H]4C[C@H](O)CC[C@]4(C)[C@H]3C[C@H](O)[C@]12C", "RLU, fluorescence trace", 515.049),
    ("C[C@H](CCC(=O)NCCS(=O)(=O)O)[C@H]1CC[C@H]2[C@@H]3[C@H](O)C[C@@H]4C[C@H](O)CC[C@]4(C)[C@H]3C[C@H](O)[C@]12C", "RLU, fluorescence trace", 584.502),
    ("C[C@H](CCC(=O)O)[C@H]1CC[C@H]2[C@@H]3CC[C@@H]4C[C@H](O)CC[C@]4(C)[C@H]3C[C@H](O)[C@]12C", "RLU, fluorescence trace", 328.36),
]

QUERY: Can you share its RLU, fluorescence trace? I mean this molecule: C[C@H](CCC(=O)O)[C@H]1CC[C@H]2[C@@H]3[C@@H](O)C[C@@H]4C[C@H](O)CC[C@]4(C)[C@H]3CC[C@]12C
RESULT: 253.766

QUERY: Param item: C[C@H](CCC(=O)NCC(=O)O)[C@H]1CC[C@H]2[C@@H]3[C@H](O)C[C@@H]4C[C@H](O)CC[C@]4(C)[C@H]3C[C@H](O)[C@]12C
RESULT: 548.501

QUERY: Param item: C[C@H](CCC(=O)NCCS(=O)(=O)O)[C@H]1CC[C@H]2[C@@H]3CC[C@@H]4C[C@H](O)CC[C@]4(C)[C@H]3CC[C@]12C
RESULT: 262.891

###

Each record here notes measured RLU.
# experimental.target: human TAS2R14 (Homo sapiens)
# Construct: expressed in transfected cells; host or cells: HEK293T-Gα16gust44
# Sequence (Q9NYV8 1-317): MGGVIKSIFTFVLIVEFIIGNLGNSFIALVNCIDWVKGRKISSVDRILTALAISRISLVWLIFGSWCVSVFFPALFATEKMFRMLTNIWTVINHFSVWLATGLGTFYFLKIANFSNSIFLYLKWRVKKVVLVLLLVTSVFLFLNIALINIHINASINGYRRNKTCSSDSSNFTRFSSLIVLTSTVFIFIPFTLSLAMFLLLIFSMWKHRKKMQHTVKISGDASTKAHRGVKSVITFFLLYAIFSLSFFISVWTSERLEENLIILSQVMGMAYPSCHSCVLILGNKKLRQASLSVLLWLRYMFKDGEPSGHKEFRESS
# method.notes: Calcium imaging assay (FLIPR), HEK293T-Gα16gust44 cells transfected with human TAS2R14
# Format: cell-based
# condition.details: TAS2R14 trace; Time (s) 78.797 (Chenodeoxycholic Acid 78.781)
Give the quantity in RLU, number only.

# compound, readout.label, numeric.value
data = [
    ("C[C@H](CCC(=O)O)[C@H]1CC[C@H]2[C@@H]3[C@H](O)C[C@@H]4C[C@H](O)CC[C@]4(C)[C@H]3C[C@H](O)[C@]12C [Cholic Acid, cholic acid]", "RLU", 969.484),
]

QUERY: Can you share its RLU? I mean this compound: C[C@H](CCC(=O)NCCS(=O)(=O)O)[C@H]1CC[C@H]2[C@@H]3[C@H](O)C[C@@H]4C[C@H](O)CC[C@]4(C)[C@H]3C[C@H](O)[C@]12C [Taurocholic Acid, taurocholic acid]
RESULT: 702.313

QUERY: Param item: C[C@H](CCC(=O)NCCS(=O)(=O)O)[C@H]1CC[C@H]2[C@@H]3CC[C@@H]4C[C@H](O)CC[C@]4(C)[C@H]3CC[C@]12C [Taurolithocholic Acid, taurolithocholic acid]
RESULT: 291.733

QUERY: Param item: C[C@H](CCC(=O)O)[C@H]1CC[C@H]2[C@@H]3[C@H](O)C[C@@H]4C[C@H](O)CC[C@]4(C)[C@H]3CC[C@]12C [Chenodeoxycholic Acid, chenodeoxycholic acid]
RESULT: 648.451

QUERY: Param item: C[C@H](CCC(=O)NCC(=O)O)[C@H]1CC[C@H]2[C@@H]3[C@H](O)C[C@@H]4C[C@H](O)CC[C@]4(C)[C@H]3C[C@H](O)[C@]12C [Glycocholic Acid, glycocholic acid]
RESULT: 706.104
